- System: Streptococcus sp. 'group A'
- Method Description: growth inhibition of control SK(-) GAS strain, dose response, counter-screen for streptokinase expression inhibitor project, luminescence, kanamycin, BacTiterGlo, confirmation (AID 1900)
- Assay type: functional, organism-based
The source made the active and inactive calls.

[
  {
    "Compound": "CCCCc1nc(N2CCN(C(=O)c3ccco3)CC2)c(C#N)c2c1CCCC2",
    "Experimental Target": "Streptococcus sp. 'group A'",
    "EC50": "7.4 µM (active)"
  },
  {
    "Compound": "c1csc(-c2csc3nc(CN4CCOCC4)nc(NCc4ccc5c(c4)OCO5)c23)c1",
    "Experimental Target": "Streptococcus sp. 'group A'",
    "EC50": "12.3 µM (active)"
  },
  {
    "Compound": "Cn1c(=O)c2c(nc(SCc3ccccc3)n2Cc2ccc(Cl)cc2)n(C)c1=O",
    "Experimental Target": "Streptococcus sp. 'group A'",
    "EC50": "7.96 µM (active)"
  },
  {
    "Compound": "CCCN(CC(=O)Nc1ccccc1OC)C(=O)c1ccncc1",
    "Experimental Target": "Streptococcus sp. 'group A'",
    "EC50": "> 150 µM (not active)"
  },
  {
    "Compound": "Cc1ccc(S(=O)(=O)Nc2cc(Cl)c(O)c3ncccc23)cc1",
    "Experimental Target": "Streptococcus sp. 'group A'",
    "EC50": "8.9 µM (active)"
  },
  {
    "Compound": "COc1cccc(/C=C(/C(=O)OCC(=O)NC2CCCC(C)C2C)c2ccccc2)c1 (configuration not stated)",
    "Experimental Target": "Streptococcus sp. 'group A'",
    "EC50": "6.28 µM (active)"
  },
  {
    "Compound": "CC1C/C(=N\\NC(=S)NCc2ccccc2)CC(C)(C)C1 (configuration not stated)",
    "Experimental Target": "Streptococcus sp. 'group A'",
    "EC50": "6.08 µM (active)"
  }
]

###

Entries and their AC50
- Experimental Target: Dual specificity tyrosine-phosphorylation-regulated kinase 1A (Rattus norvegicus)
- Format: biochemical, Homo sapiens
Activity calls are given as the source filed them.

[
  {
    "Smiles Text": "COc1ccc2c(c1)CCc1c-2n[nH]c1C(=O)O",
    "AC50": "7.28 µM (active)"
  },
  {
    "Smiles Text": "CN1CCN(c2cc3c(c4c2[nH]c2ccccc24)C(=O)CC(C)(C)C3)CC1",
    "AC50": "7.77 µM (active)"
  },
  {
    "Smiles Text": "COc1cccc(NC(=O)Nc2ccc3c(c2)N(C)C(=O)CS3)c1",
    "AC50": "5.3 µM (active)"
  },
  {
    "Smiles Text": "Oc1ccc2c(c1)oc1cc(O)ccc12",
    "AC50": "0.754 µM (active)"
  }
]

###

- Experimental Target: Voltage-dependent T-type calcium channel subunit alpha-1H (Homo sapiens, UniProt O95180);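 also: channel activity triggered by adding a high calcium stimulation buffer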
- Sequence (O95180 whole entry): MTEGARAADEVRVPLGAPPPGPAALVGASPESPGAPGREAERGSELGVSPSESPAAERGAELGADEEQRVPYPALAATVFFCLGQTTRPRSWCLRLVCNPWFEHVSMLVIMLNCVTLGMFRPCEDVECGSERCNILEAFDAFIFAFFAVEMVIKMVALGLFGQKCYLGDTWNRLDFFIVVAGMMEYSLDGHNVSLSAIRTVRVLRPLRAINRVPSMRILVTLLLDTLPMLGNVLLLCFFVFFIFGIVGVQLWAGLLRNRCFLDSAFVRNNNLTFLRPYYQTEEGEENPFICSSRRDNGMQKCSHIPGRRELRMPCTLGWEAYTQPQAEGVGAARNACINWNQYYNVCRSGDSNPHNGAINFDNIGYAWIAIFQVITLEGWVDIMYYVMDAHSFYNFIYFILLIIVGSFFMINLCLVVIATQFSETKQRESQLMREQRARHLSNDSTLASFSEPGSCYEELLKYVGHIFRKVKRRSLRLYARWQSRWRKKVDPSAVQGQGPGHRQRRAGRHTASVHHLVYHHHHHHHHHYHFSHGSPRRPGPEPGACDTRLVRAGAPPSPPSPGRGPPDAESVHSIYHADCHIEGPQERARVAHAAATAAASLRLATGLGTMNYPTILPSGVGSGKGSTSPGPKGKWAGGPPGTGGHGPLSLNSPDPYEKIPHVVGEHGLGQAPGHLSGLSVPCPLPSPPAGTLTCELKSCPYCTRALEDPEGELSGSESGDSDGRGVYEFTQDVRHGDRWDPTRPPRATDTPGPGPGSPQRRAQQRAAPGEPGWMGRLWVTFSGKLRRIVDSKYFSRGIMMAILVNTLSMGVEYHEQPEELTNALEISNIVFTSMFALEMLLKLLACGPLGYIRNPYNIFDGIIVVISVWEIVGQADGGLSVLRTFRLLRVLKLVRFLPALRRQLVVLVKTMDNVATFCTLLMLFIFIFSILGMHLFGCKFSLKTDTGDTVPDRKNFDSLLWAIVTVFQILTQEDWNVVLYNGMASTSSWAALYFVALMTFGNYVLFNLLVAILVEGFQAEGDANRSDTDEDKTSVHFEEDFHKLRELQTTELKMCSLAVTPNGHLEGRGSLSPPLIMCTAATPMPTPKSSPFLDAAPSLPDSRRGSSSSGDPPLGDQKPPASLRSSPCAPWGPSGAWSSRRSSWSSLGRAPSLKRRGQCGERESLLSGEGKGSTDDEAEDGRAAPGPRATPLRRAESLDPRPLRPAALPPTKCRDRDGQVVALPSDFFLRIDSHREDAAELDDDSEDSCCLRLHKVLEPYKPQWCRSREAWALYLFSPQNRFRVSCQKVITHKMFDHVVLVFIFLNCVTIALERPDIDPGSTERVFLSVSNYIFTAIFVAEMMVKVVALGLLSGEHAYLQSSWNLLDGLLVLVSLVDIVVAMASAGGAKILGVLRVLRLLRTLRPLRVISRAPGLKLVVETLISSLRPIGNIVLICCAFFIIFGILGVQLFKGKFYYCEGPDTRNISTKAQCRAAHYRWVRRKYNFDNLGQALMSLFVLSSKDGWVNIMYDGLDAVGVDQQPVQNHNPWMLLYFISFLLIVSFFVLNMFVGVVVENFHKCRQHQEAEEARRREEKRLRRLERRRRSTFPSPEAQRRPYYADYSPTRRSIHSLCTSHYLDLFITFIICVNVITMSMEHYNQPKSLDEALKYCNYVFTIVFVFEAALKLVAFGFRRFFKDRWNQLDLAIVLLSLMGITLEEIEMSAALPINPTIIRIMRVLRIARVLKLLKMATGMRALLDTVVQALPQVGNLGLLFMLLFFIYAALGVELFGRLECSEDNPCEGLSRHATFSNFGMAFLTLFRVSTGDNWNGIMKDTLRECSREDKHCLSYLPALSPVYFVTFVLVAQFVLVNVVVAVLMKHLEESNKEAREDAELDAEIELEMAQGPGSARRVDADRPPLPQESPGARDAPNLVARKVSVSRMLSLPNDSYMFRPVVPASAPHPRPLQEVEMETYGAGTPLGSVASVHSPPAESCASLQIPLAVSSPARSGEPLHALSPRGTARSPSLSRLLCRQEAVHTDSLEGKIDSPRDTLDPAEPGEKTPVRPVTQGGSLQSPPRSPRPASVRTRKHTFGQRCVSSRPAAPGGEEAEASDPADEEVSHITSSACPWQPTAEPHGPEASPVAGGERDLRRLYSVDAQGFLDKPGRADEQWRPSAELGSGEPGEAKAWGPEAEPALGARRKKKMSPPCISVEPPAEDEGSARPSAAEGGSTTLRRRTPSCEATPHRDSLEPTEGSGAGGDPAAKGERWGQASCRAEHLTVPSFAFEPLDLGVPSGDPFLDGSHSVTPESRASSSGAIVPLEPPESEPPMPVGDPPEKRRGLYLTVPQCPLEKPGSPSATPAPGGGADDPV
- Format: functional
Active and inactive are the calls of the source.
Collected EC50 values appear next to each entry.

[
  {
    "Smiles Text": "CSc1cccc(NC(=O)CSc2ccccc2)c1",
    "EC50": "9.9 µM (active)"
  },
  {
    "Smiles Text": "O=C(CSc1nnc(Cc2cccs2)n1-c1ccccc1)NCc1ccc2c(c1)OCO2",
    "EC50": "8.23 µM (active)"
  },
  {
    "Smiles Text": "Cc1cccc2cc(CN(Cc3ccco3)C(=O)Nc3cccc(C#N)c3)c(Cl)nc12",
    "EC50": "6.15 µM (active)"
  },
  {
    "Smiles Text": "O=C(Nc1ccc(F)cc1)c1cc(S(=O)(=O)Nc2ccc(F)cc2)cs1",
    "EC50": "2.88 µM (active)"
  }
]
